- protocol description: NFAT Signaling Pathway (AID 444);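 further: carbachol stimulus at about its EC50 of 1 µM final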
- test context: Jurkat NFAT-bla M1, carbachol, beta-lactamase ratio, 5 h; at 7.69 µM (top of the series) unless noted
Records with an inconclusive call do not appear.
Please use true whenever activity change, negative = inhibition is not below 10%, and false whenever it is.

INSERT INTO results (molecule, assigned_label) VALUES
  ('C/C(=N\NC(N)=S)c1ccc[nH]1', 'true'),
  ('Clc1cc2c(c(CSC3=NCN(CC4CC4)CN3)c1)OCOC2', 'false'),
  ('N[C@@H](Cc1ccccc1)C(=O)O', 'true'),
  ('Nc1ncnc2c1ncn2C[C@@H](O)C(=O)O', 'false'),
  ('CC(C)(CO[C@H]1C[C@H]2CC[C@@]1(C)C2(C)C)[N+](=O)[O-]', 'false'),
  ('NC(N)=N[C@@H]1C(O)[C@H](N=C(N)N)[C@@H](O)C(O)[C@H]1O (stereo partly specified)', 'true');
